Origin of values: patent US8604046B2

Target: UniProt:Q865E1
Sequence (Q865E1 1-445): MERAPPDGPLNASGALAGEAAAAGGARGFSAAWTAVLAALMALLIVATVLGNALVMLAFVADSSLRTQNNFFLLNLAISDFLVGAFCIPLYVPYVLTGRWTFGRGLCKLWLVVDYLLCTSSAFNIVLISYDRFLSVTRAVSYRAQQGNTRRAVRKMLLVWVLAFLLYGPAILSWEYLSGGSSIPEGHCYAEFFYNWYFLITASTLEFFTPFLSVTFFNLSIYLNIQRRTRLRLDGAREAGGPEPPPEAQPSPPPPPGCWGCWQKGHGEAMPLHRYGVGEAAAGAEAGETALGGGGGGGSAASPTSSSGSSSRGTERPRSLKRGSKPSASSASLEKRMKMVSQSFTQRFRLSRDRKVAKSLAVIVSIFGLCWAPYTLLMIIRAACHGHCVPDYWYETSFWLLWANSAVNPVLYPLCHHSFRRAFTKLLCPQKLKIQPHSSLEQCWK
Experiment: GTPγS radioligand binding assay, inhibition of rhesus H3 constitutive functional activity (inverse agonism)
Format: biochemical, rhesus monkey (Macacca Mulatta)
Set-up: concentration or dose not given beside the values
Details: rhesus H3 cell membranes, relative to basal levels
Description: Rhesus H3 membranes were prepared from the Flp-In T-REx 293 Cell Line (Invitrogen) stably transfected with pcDNA5/FRT/TO (Invitrogen) containing the rhesus monkey (Macacca Mulatta) 445 amino acid H3 receptor. (Genbank #AY231164). Stably transfected cultures were amplified in tissue culture flasks by standard tissue culture methods and induced to express rhesus H3 by exposure to 500 ng/ml tetracycline (Cellgro) for 24 hours. […]
readout: Inverse Agonism: % inhibition of Basal GTPγS binding in Rhesus H3 (%)
Give the value in % but do not write % after it.

Query Inverse Agonism: % inhibition of Basal GTPγS binding in Rhesus H3 on UniProt:Q865E1 for `C[C@H]1CCCN1[C@H]1CCN(c2ccc(N3CCCC4(CCN(C(=O)C5CCOCC5)CC4)C3=O)c(F)c2)C1`
−19

Query Inverse Agonism: % inhibition of Basal GTPγS binding in Rhesus H3 on UniProt:Q865E1 for `C[C@H]1CCCN1C1CCN(c2ccc(N3CCC4(CCNCC4)C3=O)cc2)CC1.Cl`
−19

Query Inverse Agonism: % inhibition of Basal GTPγS binding in Rhesus H3 on UniProt:Q865E1 for `C[C@H]1CCCN1[C@H]1CCN(c2ccc(N3CCCC4(CCN(CC5CC5)CC4)C3=O)cc2)C1`
−16
